Measured mass density values are reported for all entries that follow.
Details: 323.15 K; 101.33 kPa; Liquid; Vibrating tube method
Please state the figure in kg/m3; there is no need to write the unit.

Example molecules with recorded mass density:
CCCCCCCCCCCCCC(=O)OC [methyl tetradecanoate]; 843.97
CCCCCCCC(=O)OC [methyl octanoate]; 850.13
CCCCCC(=O)OCC [ethyl hexanoate]; 842.71
CCCCCCCC(=O)OCC [ethyl octanoate]; 839.92
CCCCCCCCCCCC [dodecane]; 726.74

Requested read-out: mass density. Entry: CCCCCCCCCCCCCC(=O)OCC [ethyl tetradecanoate]
837.86

Need mass density, item CCCCCCCCCCCC(=O)OCC [ethyl dodecanoate]
838.31

Sample CCCCCCCCCC(=O)OC [methyl decanoate] — what was its mass density?
847.47

What value of measured mass density is listed for CCCCCC(=O)OC [methyl hexanoate] ?
855.4

// returns reported mass density for input CCCCCCCCCC(=O)OCC [ethyl decanoate]
839.41

# get_value(readout='mass density', item= CCCCCCC(=O)OC [methyl heptanoate] )
852.39

Which mass density value is on record for CCCCCCCCCCCC(=O)OC [methyl dodecanoate] ?
845.42

# lookup: mass density of CCCCCCC(=O)OCC [ethyl heptanoate]
842.26

----------
refractive index: recorded values
Test: refractive index (Na D-line) (dimensionless)
Conditions: 303.15 K; 101.33 kPa; Liquid; Standard Abbe refractometry
Reply briefly: the number, and no unit.

See these solved cases before continuing.
CCCCCCCCCCCCCC(=O)OCC [ethyl tetradecanoate]; 1.4323
CCCCCCC(=O)OCC [ethyl heptanoate]; 1.40896
CCCCCC(=O)OCC [ethyl hexanoate]; 1.40295
CCCCCCCC(=O)OC [methyl octanoate]; 1.41298
CCCCCCCCCCCC(=O)OCC [ethyl dodecanoate]; 1.42755
CCCCCCCCCCCC(=O)OC [methyl dodecanoate]; 1.42802
CCCCCCCCCC(=O)OCC [ethyl decanoate]; 1.42155
CCCCCCCCCCCCCC(=O)OC [methyl tetradecanoate]; 1.43296

Quick one: refractive index for CCCCCC(=O)OC [methyl hexanoate] ?
1.4007

Record request: refractive index value, item CCCCCCCCCC(=O)OC [methyl decanoate]
1.42148

For the compound shown here, CCCCCCCC(=O)OCC [ethyl octanoate] , give the reported refractive index.
1.41367

Quick check: refractive index of CCCCCCC(=O)OC [methyl heptanoate] ?
1.40753

----------
Conditions: 453.15 K; 101.33 kPa; Liquid; Vibrating tube method
measurement_type: mass density (kg/m3)
Please give a number only; it is taken to be in kg/m3.

In the examples that follow, each entry is paired with its recorded mass density.
CCCCCCCCCCCCCC(=O)OC [methyl tetradecanoate]; 745.22
CCCCCCCC(=O)OCC [ethyl octanoate]; 723.58
CCCCCCCCCCCC(=O)OC [methyl dodecanoate]; 741.94
CCCCCCCCCC(=O)OCC [ethyl decanoate]; 731.01
CCCCCCCCCCCC(=O)OCC [ethyl dodecanoate]; 735.97

What measured mass density goes with `CCCCCCCCCCCC` ?
627.38

Any idea what its mass density is? The molecule is CCCCCCCCCCCCCC(=O)OCC [ethyl tetradecanoate]
739.78

Quick one: mass density for CCCCCCCC(=O)OC [methyl octanoate] ?
729.82

Could you tell me which mass density is on file for CCCCCCCCCC(=O)OC [methyl decanoate] ?
737.39

----------
Settings: 383.15 K; 101.33 kPa; Liquid; Vibrating tube method
measurement_type: mass density (kg/m3)
A number alone suffices; assume kg/m3.

Please review the entries below; each comes with its answer.
CCCCCCCCCC(=O)OCC [ethyl decanoate]; 790.26
CCCCCCCC(=O)OCC [ethyl octanoate]; 788.08
CCCCCCCCCCCC(=O)OCC [ethyl dodecanoate]; 791.55
CCCCCCCCCC(=O)OC [methyl decanoate]; 797.7
CCCCCC(=O)OCC [ethyl hexanoate]; 784.83
CCCCCCCCCCCC; 682.25

Find the recorded mass density belonging to CCCCCCCCCCCCCC(=O)OC [methyl tetradecanoate] and report it.
798.64

Look at this molecule and give its reported mass density. CCCCCCCCCCCC(=O)OC [methyl dodecanoate]
798.22

I would be grateful if you could share the reported mass density for CCCCCCCC(=O)OC [methyl octanoate] .
796.52

// returns reported mass density for input CCCCCCC(=O)OC [methyl heptanoate]
796.11

Look up mass density: CCCCCCCCCCCCCC(=O)OCC [ethyl tetradecanoate]
792.77

Give the measured mass density of CCCCCCC(=O)OCC [ethyl heptanoate] .
787.24

Record request: mass density value, item CCCCCC(=O)OC [methyl hexanoate]
795.6

----------
Conditions: 293.15 K; 101.33 kPa; Liquid; Vibrating tube method
measurement_type: mass density (kg/m3)
Reply with just the number (in kg/m3).

CCCCCCCC(=O)OC [methyl octanoate]; 876.58
CCCCCCCCCCCC(=O)OC [methyl dodecanoate]; 869.26
CCCCCCCC(=O)OCC [ethyl octanoate]; 866.99
CCCCCCCCCCCC [dodecane]; 748.81
CCCCCCC(=O)OC [methyl heptanoate]; 879.29

Give its mass density value. Item: CCCCCCC(=O)OCC [ethyl heptanoate]
869.42

So what's the measured mass density for this one? CCCCCC(=O)OCC [ethyl hexanoate]
871.07

----------
Test: refractive index (Na D-line) (dimensionless)
Conditions: 343.15 K; 101.33 kPa; Liquid; Standard Abbe refractometry
measurement_type: refractive index
Respond numerically, and do not add a unit to the figure.

Use the examples below as a reference point.
CCCCCCCC(=O)OCC [ethyl octanoate]; 1.39603
CCCCCCCCCC(=O)OC [methyl decanoate]; 1.40448
CCCCCCCCCCCC(=O)OCC [ethyl dodecanoate]; 1.4109
CCCCCCC(=O)OC [methyl heptanoate]; 1.38946
CCCCCCCCCCCC(=O)OC [methyl dodecanoate]; 1.41127
CCCCCCCCCCCCCC(=O)OC [methyl tetradecanoate]; 1.4163
CCCCCCCC(=O)OC [methyl octanoate]; 1.39535
CCCCCCCCCCCCCC(=O)OCC [ethyl tetradecanoate]; 1.41603
CCCCCC(=O)OCC [ethyl hexanoate]; 1.38438
CCCCCCC(=O)OCC [ethyl heptanoate]; 1.39088

Look at this molecule and give its reported refractive index. CCCCCCCCCC(=O)OCC [ethyl decanoate]
1.40451

Please look up its refractive index: CCCCCC(=O)OC [methyl hexanoate]
1.38169

----------
Each item that follows carries a reported mass density.
Details: 443.15 K; 101.33 kPa; Liquid; Vibrating tube method
Give the value, in units of kg/m3, as a plain number.

// solved cases for mass density follow
CCCCCCCCCC(=O)OCC [ethyl decanoate]; 739.7
CCCCCCCCCCCCCC(=O)OC [methyl tetradecanoate]; 752.95
CCCCCCCCCCCC(=O)OCC [ethyl dodecanoate]; 744.05
CCCCCCCCCCCCCC(=O)OCC [ethyl tetradecanoate]; 747.42
CCCCCCCCCCCC(=O)OC [methyl dodecanoate]; 750.06

For the next question, use this compound.
Fill blank: measured mass density of the compound CCCCCCCCCC(=O)OC [methyl decanoate] is ____.
746.3

----------
Listing of entries alongside the reported refractive index.
Experiment: refractive index (Na D-line) (dimensionless)
Details: 318.15 K; 101.33 kPa; Liquid; Standard Abbe refractometry
Just the number, please, no unit after it.

Example results:
CCCCCC(=O)OCC [ethyl hexanoate]; 1.39594
CCCCCCCCCCCC(=O)OCC [ethyl dodecanoate]; 1.42125
CCCCCCCCCCCC(=O)OC [methyl dodecanoate]; 1.42171
CCCCCCCC(=O)OC [methyl octanoate]; 1.40629
CCCCCC(=O)OC [methyl hexanoate]; 1.39373

For CCCCCCCCCC(=O)OCC [ethyl decanoate] , what is its reported refractive index?
1.41512

Recorded refractive index of CCCCCCCC(=O)OCC [ethyl octanoate] , please.
1.40703

Which refractive index reading was recorded for the compound CCCCCCCCCC(=O)OC [methyl decanoate] ?
1.4151

----------
Experiment: refractive index (Na D-line) (dimensionless)
Details: 328.15 K; 101.33 kPa; Liquid; Standard Abbe refractometry
± gives the expanded uncertainty stated by the source.
measurement_type: refractive index

Below, 5 molecules whose answers are already recorded.
CCCCCCCCCC(=O)OC [methyl decanoate]; 1.41083 ± 0.00052
CCCCCCCC(=O)OCC [ethyl octanoate]; 1.40261 ± 0.00052
CCCCCCCCCCCC(=O)OCC [ethyl dodecanoate]; 1.41707 ± 0.00051
CCCCCCC(=O)OCC [ethyl heptanoate]; 1.39761 ± 0.00057
CCCCCCCCCC(=O)OCC [ethyl decanoate]; 1.41084 ± 0.00052

// moving on: another record for refractive index
Consider the molecule shown here: CCCCCCCCCCCCCC(=O)OCC [ethyl tetradecanoate] What is its recorded refractive index?
1.42205 ± 0.00049
